- study-target: T1, human S100A4 dimer (Homo sapiens, UniProt P26447 1-101)
- T1 construct: In the SPR it was captured on an anti-His surface, so it carried a His tag; also called recombinant human S100A4 dimer
- T1 sequence (P26447 whole entry, one chain of several): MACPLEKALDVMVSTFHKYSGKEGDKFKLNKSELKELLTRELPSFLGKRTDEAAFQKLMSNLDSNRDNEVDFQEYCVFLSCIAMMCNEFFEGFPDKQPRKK
- protocol-notes: SPR, Biacore T200, 25 C; S100A4 captured via anti-His, antibody as analyte (0.78-200 nM), 1:1 fit
- Method: Quantitative, kinetic analysis of the interactions between 14 humanized antibodies and 2 control antibodies with the human S100A4 dimer were performed using surface plasmon resonance (SPR). The analysis was performed using a Biacore T200 instrument, at 25° C. analysis temperature, at a flow rate of 50 μl/min for quantitative kinetic interaction analyses.
result-type: koff (s⁻¹)
Quick reminder: number only, in s⁻¹, skip the unit.

binder VH1_H43Ser + H44Lys VL3 (antibody, V domains shown) VH: QVQLQESGPGLVKPSQTLSLTCTVSGDSFTNDYYWNWIRQHPGSKLEWIGHIGYGGNINYNPSLKNRLSMSRDTSKNQFSLKLSSVTAADTAVYYCTRESFYDGYPFDYWGQGTLVTVSS VL: DIQMTQSPSSLSASVGDRVTITCRASQDIRNYLNWYQQKPGKAPKLLLYYTSRLHSGVPSRFSGSGSGTDYTLTISSLQPEDFATYYCQQGNSLPRTFGGGTKVEIK , koff observed: 0.000596

# credit: patent US20240043521A1
